test system: MST2; construct: gene STK3; conditions: concentration: 1 μM,replicates: in singlicate; n = 1;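 note: KINOMEscan kinase panel screen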
Note to self: use 1.0 only for %Inh readings below 30%; a reading exactly at 30% still gets 0.0.

Use the examples below as a reference point.
Quick check: %Inh of CCn1c(-c2nonc2N)nc2c(C#CC(C)(C)O)nc(OCCN)cc21.Cl.Cl [GSK902056] under 30%?
1.0

Quick check: %Inh of CC(C)Nc1cc(-c2ccc3c(N)n[nH]c3c2)nc(N)n1 [GSK2221681] under 30%?
1.0

Quick check: %Inh of Cc1cc2cn[nH]c2cc1-c1cccc2c(N)c(C(N)=O)nnc12 under 30%?
0.0

Quick check: %Inh of Cl.Cl.NC[C@H](CC1CCCCC1)NC(=O)c1cc(Br)c(-c2ccnc3[nH]ccc23)s1 [GSK1581427] under 30%?
1.0

Quick check: %Inh of C=CC(=O)Nc1cc2c(Nc3ccc(F)c(Cl)c3)ncnc2cc1OCCCN1CCOCC1 [GW781483] under 30%?
1.0

Quick check: %Inh of CN(C)CCOc1ccc(-c2cc(-c3c[nH]nc3-c3ccccn3)ccn2)cc1 [GW835314] under 30%?
1.0

Quick check: %Inh of Cc1ccc2c(-c3ccncc3)c(-c3ccc(F)cc3)nn2c1.Cl [GW461484] under 30%?
1.0

Quick check: %Inh of O=C(NCCNc1ccnc(NCc2ccc(F)cc2)n1)c1cc2ccccc2s1 [GSK1379944] under 30%?
1.0

---
Quick check: %Inh of CN(C)CC(O)COc1ccc(Nc2nccc(-c3cnn4nc(N5CCOCC5)ccc34)n2)cc1 (stereo not shown) [GW767488] under 30%?
1.0

Quick check: %Inh of COc1ccc(C[C@@H](CN)NC(=O)c2cc(Br)c(-c3ccnc4[nH]ccc34)s2)cc1.Cl.Cl [GSK1389063] under 30%?
0.0

Quick check: %Inh of Cl.Oc1cc(-c2nc(-c3ccccc3)[nH]c2-c2ccncc2)ccc1Cl [SB-386023] under 30%?
1.0

Quick check: %Inh of Cc1cc(C(=O)Nc2ccc(Oc3ccc4nc(NC(=O)C5CC5)cn4n3)cc2)nn1-c1ccccc1 under 30%?
1.0

Quick check: %Inh of Cc1n[nH]c2ccc(-c3cc(OC[C@@H](N)Cc4ccccc4)cnc3-c3ccoc3)cc12.O=C(O)C(F)(F)F.O=C(O)C(F)(F)F [GSK507358] under 30%?
0.0

Quick check: %Inh of O=C(NCCCN1CCOC1=O)c1cnc(NCc2cc(Cl)ccc2Cl)nc1NC1CCCC1 under 30%?
0.0

Quick check: %Inh of CCN(CC)CCCCNc1ncc2cc(-c3c(Cl)cccc3Cl)c(NC(=O)NC(C)(C)C)nc2n1 under 30%?
0.0

Quick check: %Inh of C[C@H]1Oc2cc(cnc2N)-c2c(nn(C)c2C#N)CN(C)C(=O)c2ccc(F)cc21 under 30%?
1.0

Reference for the values: paper PMC5540273
